Quick reference: viability, T/C of the listed items.
- Test system: KRAS patient-derived spheroids with HUVEC/MSC, viability
- protocol description: Anticancer human tumor 519858-162-T-J1-PDC patient-derived colon adenocarcinoma cell line growth inhibition [KRAS2]
- cond: second compound 0.316 µM; first compound 0.01 µM; active compounds read low

molecule	unit symbol	viability, T/C
CN(C)C/C=C/C(=O)Nc1cc2c(Nc3ccc(F)c(Cl)c3)ncnc2cc1O[C@H]1CCOC1 + C=CC(=O)N1CCN(c2nc(=O)n(-c3c(C)ccnc3C(C)C)c3nc(-c4c(O)cccc4F)c(F)cc23)C(C)C1	%	86
CC(C)n1nc(-c2ccc3oc(N)nc3c2)c2c(N)ncnc21 + CC1OCC2(CCN(c3cnc(Sc4ccnc(N)c4Cl)c(N)n3)CC2)C1N	%	60.8
Cn1ncnc1[C@H]1c2n[nH]c(=O)c3cc(F)cc(c23)N[C@@H]1c1ccc(F)cc1 + CC1OCC2(CCN(c3cnc(Sc4ccnc(N)c4Cl)c(N)n3)CC2)C1N	%	56.7
CCN1CCN(Cc2ccc(Nc3ncc(F)c(-c4cc(F)c5nc(C)n(C(C)C)c5c4)n3)nc2)CC1 + C=CC(=O)N1CCN(c2nc(OCC3CCCN3C)nc3c2CCN(c2cccc4cccc(C)c24)C3)CC1CC#N	%	78.4
CC(C)n1nc(-c2ccc3oc(N)nc3c2)c2c(N)ncnc21 + C=CC(=O)N1CCN(c2nc(=O)n(-c3c(C)ccnc3C(C)C)c3nc(-c4c(O)cccc4F)c(F)cc23)C(C)C1	%	58.9
CC1COCCN1c1cc(-c2ccnn2C)c2ccnc(-c3ccn[nH]3)c2n1 (stereo unspecified) + CC1OCC2(CCN(c3cnc(Sc4ccnc(N)c4Cl)c(N)n3)CC2)C1N	%	87
CC1COCCN1c1cc(-c2ccnn2C)c2ccnc(-c3ccn[nH]3)c2n1 (stereo unspecified) + CNCc1ccccc1-c1csc(C(C)Nc2nc(C)nc3cc(OC)c(OC)cc23)c1	%	95
CC1COCCN1c1cc(-c2ccnn2C)c2ccnc(-c3ccn[nH]3)c2n1 (stereo unspecified) + COc1cc2nc(C)nc(NC(C)c3cc(N)cc(C(F)(F)F)c3)c2cc1OC1CCOC1	%	74.1
CC(=O)OC12COC1CC(O)C1(C)C(=O)C(O)C3=C(C)C(OC(=O)C(O)C(NC(=O)OC(C)(C)C)c4ccccc4)CC(O)(C(OC(=O)c4ccccc4)C21)C3(C)C (stereo unspecified) + C=CC(=O)N1CCN(c2nc(OCC3CCCN3C)nc3c2CCN(c2cccc4cccc(C)c24)C3)CC1CC#N	%	67.5
Cn1ncnc1[C@H]1c2n[nH]c(=O)c3cc(F)cc(c23)N[C@@H]1c1ccc(F)cc1 + CNCc1ccccc1-c1csc(C(C)Nc2nc(C)nc3cc(OC)c(OC)cc23)c1	%	112
CC(=O)OC12COC1CC(O)C1(C)C(=O)C(O)C3=C(C)C(OC(=O)C(O)C(NC(=O)OC(C)(C)C)c4ccccc4)CC(O)(C(OC(=O)c4ccccc4)C21)C3(C)C (stereo unspecified) + CNCc1ccccc1-c1csc(C(C)Nc2nc(C)nc3cc(OC)c(OC)cc23)c1	%	76.2

* * *

- System: KRAS patient-derived spheroids with HUVEC/MSC, viability
- protocol description: Anticancer human tumor 519858-162-T-J1-PDC cell line growth inhibition [KRAS2];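 further: compound exposure lasted seven days before readout; 100% = DMSO vehicle control viability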
- cond: second compound 10 µM; first compound 0.01 µM; active compounds read low
assay endpoint: viability, T/C (%)

compound	number
CC(=O)OC12COC1CC(O)C1(C)C(=O)C(O)C3=C(C)C(OC(=O)C(O)C(NC(=O)OC(C)(C)C)c4ccccc4)CC(O)(C(OC(=O)c4ccccc4)C21)C3(C)C (stereo not given) + CNCc1ccccc1-c1csc(C(C)Nc2nc(C)nc3cc(OC)c(OC)cc23)c1	43.4
CC(=O)Nc1cccc(-n2c(=O)n(C3CC3)c(=O)c3c(Nc4ccc(I)cc4F)n(C)c(=O)c(C)c32)c1 + COc1cc2nc(C)nc(NC(C)c3cc(N)cc(C(F)(F)F)c3)c2cc1OC1CCOC1	4.93
CN(C)C/C=C/C(=O)Nc1cc2c(Nc3ccc(F)c(Cl)c3)ncnc2cc1O[C@H]1CCOC1 + CNCc1ccccc1-c1csc(C(C)Nc2nc(C)nc3cc(OC)c(OC)cc23)c1	0.36
CCN1CCN(Cc2ccc(Nc3ncc(F)c(-c4cc(F)c5nc(C)n(C(C)C)c5c4)n3)nc2)CC1 + COc1cc2nc(C)nc(NC(C)c3cc(N)cc(C(F)(F)F)c3)c2cc1OC1CCOC1	58
CC1COCCN1c1cc(-c2ccnn2C)c2ccnc(-c3ccn[nH]3)c2n1 (stereo not given) + C=CC(=O)N1CCN(c2nc(=O)n(-c3c(C)ccnc3C(C)C)c3nc(-c4c(O)cccc4F)c(F)cc23)C(C)C1	70.4
